# EXPERIMENT: yeast display, Sf9 membrane polyspecificity reagent, FACS + sequencing; frameworks hold sequencing errors

ENTRY SEQUENCE: QVQLVVSGGGLVQAGGSLRLSCAASGRIFRSYAKGWYRQAPGKERELVAAINYGGTSTYYADSVKGRFTISRDNAKNTVYLQMNSLKPEDTAVYYCAARRPTSPRRYESWGQGTQVTVSS
polyreactivity (PSR sort gate): high polyreactivity
//
ENTRY SEQUENCE: QVQLVESGGGLVQAGGSLRLSCAASGITFITYTMGWYRQEPGKERELVAGISSGGSTYYADSVKGRFTISRDNAKNTVYLQMNSLKPEDTAVYYCAAEFAGWGYYWFDYWGQGTQVTVSS
polyreactivity (PSR sort gate): high polyreactivity
//
ENTRY SEQUENCE: QVQLVESRGGLVQARGSLRLSSAASGFIFNANAMGCYRPAPGKESELVAAIDDGDSTYADSVKGRFTISRDNAKNTVYLQMNSLKPEDTAVYYCAVDGGEFSSYGYWGEGTQVTVSS
polyreactivity (PSR sort gate): low polyreactivity
//
ENTRY SEQUENCE: QVQLVESGGGLVQAGGILRLSCAPSGLILKYYAMGWYRQAPGKEREFVAAITRRGGITYYADSVKGRFTISRDNAKNTVYLQMNSLKPEDTAVYYCAADPKLGSLAYWRYSYPLYDYWGQGTQVTVSS
polyreactivity (PSR sort gate): low polyreactivity
//
ENTRY SEQUENCE: QVQLVESGGGLVQAGGSLRLSCAASVFTFSRYAMGWYRQAPGKERELVAAITRGGGNTYYADSVKGRFTISRDNAKNTVYLQMHSLNPEDTAVFYCNAQVGNFGYRSGGYDYWGQGTQVTVSS
polyreactivity (PSR sort gate): high polyreactivity
//
ENTRY SEQUENCE: QVQLVESGGGLVQAGGSLRLSCAASGNIYDVYAMGWYRQAPGKERELVADIDRGGTTYADSVKGRFTISRDNAKNTVYLQMNSLKPEATAVYYCAADYVQGFGFYYQWHSDYWGQGTQVTVSS
polyreactivity (PSR sort gate): low polyreactivity
//
ENTRY SEQUENCE: QVQLVESGGGLVQAGGSLRLSCAASGSTFGYNDMGWYRQAHGKERELVAVIDSGGSTNYADSVKGRFTISRDNAKNTVYLQMNSLKPEDTAVYYCAADRDKGNGADVWYGYDYWGQGTQVTVSS
polyreactivity (PSR sort gate): low polyreactivity
//
ENTRY SEQUENCE: QVQLVESGGGLVQAGGSLRLSCAASGGILNRYAMGWYRQAPGKERELVAAIRWSGGSTYYADSVKGRFTISRDNAKNTVYLQMNSLKPEDTAVYYCAADVYYYHVLDFDYWGQGTLVTVSS
polyreactivity (PSR sort gate): low polyreactivity
//
ENTRY SEQUENCE: QMQLQESGGGLVQAGGSLRLSCAPSGTIIRVRYMGWHRQAPGKDRELVAGINGGTTTYNSDSVIGRFTISRDNANNTVFLQMNSLKPDDTAVYKCAAGASRLTYYDYWGQGTQVTVSS
polyreactivity (PSR sort gate): low polyreactivity
//
ENTRY SEQUENCE: QVQLVESGGGLVQAGGSLRLSCAASGGTIGRYTMGWYRQAPGKERELVAAITGRGGSTYYADSVKGRFTISRDNAKNTVYLQMNSLKPEDTAVYYCAAVSNVARMYYWGQGTQVTVSS
polyreactivity (PSR sort gate): high polyreactivity
//
ENTRY SEQUENCE: QVQLVESGGGLVQAGGSLRLSCAASGLIFRKNAMGWYRQAPGKEMELVAAISSSDSSTYADSVKGRCTISRDNAKNTVYLQMNSLKPEDTAVYYCAAASYNWLDWVTREYWGQGTQVTVSS
polyreactivity (PSR sort gate): low polyreactivity
